Where do these numbers come from? They come from the PolyMetriX glass transition set.

measurement.type: glass transition temperature (°C)

// solved cases for glass transition temperature follow
{"columns": ["compound", "unit.spec", "glass transition temperature"],
 "data": [
  ["*c1ccc(Cc2ccc(N3C(=O)CC(Nc4ccc(N(c5ccc(Nc6ccc([N+](=O)[O-])cc6)cc5)c5ccc(NC6CC(=O)N(*)C6=O)cc5)cc4)C3=O)cc2)cc1 (repeat unit)", "°C", 324.00],
  ["*Oc1ccc(NC(=O)c2cc(NC(=O)C34CC5CC(CC(C5)C3)C4)cc(C(=O)Nc3ccc(*)cc3)c2)cc1 (repeat unit)", "°C", 335.00],
  ["*N=P(N=P(N=S(*)(=O)NCC)(NCC)NCC)(NCC)NCC (repeat unit)", "°C", 4.00],
  ["*CC(*)(C)C(=O)Oc1ccc(C(=O)Oc2ccc(-c3ccccc3)cc2)cc1 (repeat unit)", "°C", 100.00],
  ["*CC(*)OC(=O)CC (repeat unit) [Poly(vinyl propionate) ]", "°C", 10],
  ["*c1ccc(Oc2ccc(S(=O)(=O)c3ccc(Oc4ccc(C5(*)OC(=O)c6ccccc65)cc4)cc3)cc2)cc1 (repeat unit)", "°C", 247.00],
  ["*CC(*)(C)C(=O)OCCCCCCOc1ccc(C(=O)Oc2ccc(-c3cccc(OC(=O)c4ccc(OC(=O)c5ccc(OCCCCCCCCCCCC)cc5)cc4)c3)cc2)cc1 (repeat unit)", "°C", 73.00],
  ["*Oc1ccc(CC(NC(=O)Cc2ccc(OC(=O)CCCCCCCCC(*)=O)cc2)C(=O)OCCCCCC)cc1 (repeat unit)", "°C", 23.00]
]}

I: *c1cccc(OCCCCCCCCCOc2cccc(N3C(=O)c4ccc(-c5ccc6c(c5)C(=O)N(*)C6=O)cc4C3=O)c2)c1 (repeat unit)
II: *Oc1ccc(CC(NC(=O)Cc2ccc(OC(=O)CCCC(*)=O)cc2)C(=O)OCCCCCC)cc1 (repeat unit)
III: *C#Cc1cccc(C#C[SiH](*)c2ccccc2)c1 (repeat unit)
IV: *Oc1ccc(C2(c3ccc(OC(=O)c4ccc(C(*)=O)cc4)cc3)c3ccccc3Cc3ccccc32)cc1 (repeat unit)
Prompt: Which order do these items take when sorted by rising glass transition temperature? List them. Would you mind listing the labels in the order requested?
Response: II, III, I, IV

----------
measurement.type: glass transition temperature (°C)

// solved cases for glass transition temperature follow
{"columns": ["compound", "glass transition temperature / °C"],
 "data": [
  ["*CC(COc1ccc(C2CCCC(CC)(c3ccc(O*)cc3)C2)cc1)OC(C)=O (repeat unit)", 107.00],
  ["*c1ccc(Oc2ccc(N3C(=O)c4ccc(Oc5cc6ccccc6cc5Oc5ccc6c(c5)C(=O)N(*)C6=O)cc4C3=O)cc2)cc1 (repeat unit)", 220.50]
]}

A: *c1ccc2c(c1)C(=O)N(c1ccc(Oc3ccc(N4C(=O)c5ccc(C(*)(C(F)(F)F)C(F)(F)F)cc5C4=O)cc3Br)c(Br)c1)C2=O (repeat unit)
B: *c1cc(C)c(/N=C/c2ccc(OCc3ccc(COc4ccc(/C=N/c5cc(C)c(N6C(=O)c7ccc8c9ccc%10c%11c(ccc(c%12ccc(c7c8%12)C6=O)c%119)C(=O)N(*)C%10=O)cc5C)cc4)cc3)cc2)cc1C (repeat unit)
Prompt: Lower value of glass transition temperature belongs to which: A or B ? Write down the label of the entry you select.
Response: B
